System: MOLT-4 leukemia
METHOD: NCI tumour cell line growth inhibition, 48 h
Measured GI50 accompanies every entry in the list below.

Completed entries (count: 2):
{"columns": ["CHEMICAL STRING", "GI50"],
 "data": [
  ["CC1(C)CCC[C@]23C(=O)O[C@](O)(C(=O)C4=C[C@@](C)(/C=C/CCCc5ccc6ccc7cccc8ccc5c6c78)CC[C@@]42O)[C@@H]13", "265 nM"],
  ["CCCCCCCCCCCCn1c(C)nc2ccccc21", "10200 nM"]
]}

Moving on to another compound below.
Incoming: // lookup GI50 for C/C1=C\[C@H](C)C[C@H](C)OC(=O)C[C@H](c2ccc(O)cc2)NC(=O)[C@@H](Cc2c(Br)[nH]c3ccccc23)N(C)C(=O)[C@H](C)NC(=O)[C@@H](C)C1
Outgoing: 76.4 nM

* * *

System: OVCAR-3 ovarian
METHOD: NCI tumour cell line growth inhibition, 48 h
# Lookup of reported TGI keyed by entry

{"columns": ["COMPOUND", "TGI"],
 "data": [
  ["CC(=O)NC1C(CO)O[C@@H]2OC(C)(C)O[C@H]12 (some centres undefined)", "> 100 µM"],
  ["Cc1ccc(C(=O)N(C(C)C)C(C)C)cc1N=NN(C)C", "> 100 µM"],
  ["O=P(Oc1ccc(Cl)cc1)(Oc1ccc(Cl)cc1)N1CC1", "> 10 µM"],
  ["CC[C@@]1(O)C(=O)NCc2c1cc1n(c2=O)Cc2cc3ccccc3nc2-1", "> 100 µM"],
  ["COc1ccc(-c2ccc3c(NC(=O)C4CC4)n[nH]c3n2)cc1", "> 25 µM"],
  ["Cc1cc(S(=O)(=O)Nc2nnc3c(C(F)(F)F)cc(Cl)cn23)c(S)cc1Cl", "> 100 µM"],
  ["O=C(O)c1c(O)c2cc(Br)ccc2oc1=O", "> 100 µM"],
  ["CC1=NNC(=NCCN(C)C)C/C1=C/c1ccccc1Cl", "> 100 µM"]
]}

Moving on to the next compound.
Incoming: Record lookup: for OVCAR-3 ovarian, what TGI belongs to O=S1(=O)NNC(=NCc2ccc(Cl)cc2)c2ccccc21 ?
Outgoing: > 100 µM

* * *

System: SR leukemia
METHOD: NCI tumour cell line growth inhibition, 48 h
MEASUREMENT LABEL: TGI

# count of solved cases: 2
{"columns": ["CHEMICAL STRING", "MEASURED TARGET", "TGI"],
 "data": [
  ["COc1ccc(-c2ccc(/C=C/C(=O)NO)cc2)cc1", "SR leukemia", "> 20.6 µM"],
  ["C/C(O)=C(\\C=N\\C(N)=S)C(=O)Nc1ccccc1C", "SR leukemia", "> 100 µM"]
]}

Incoming: Quick check: TGI of N/C(=N\NS(=O)(=O)c1ccccc1)Oc1ccc(Cl)cc1 ?
Outgoing: > 100 µM

* * *

Each entry below carries its reported TGI.
Tested on: IGROV1 ovarian
METHOD: NCI tumour cell line growth inhibition, 48 h

{"columns": ["COMPOUND", "TGI"],
 "data": [
  ["CC(NC(=O)/C(=C/c1ccccc1O)NC(=O)c1ccccc1)C(=O)O (stereo unspecified)", "> 100 µM"],
  ["Cc1c[nH]c2c1C13CC1CN(C(=O)c1cc4cc(NC(=O)c5cc6ccccc6o5)ccc4[nH]1)C3=CC2=O (stereo unspecified)", "0.0135 mg/L"],
  ["COc1ccc(C2(c3ccc(OC)cc3)OC(=O)c3cccc4cccc2c34)cc1", "> 100 µM"],
  ["CC(=O)N(CN1C(=O)CCC1C(=O)O)c1ccccc1 (stereo unspecified)", "> 100 µM"],
  ["O=C(/C=C/c1ccc(-c2ccccc2[N+](=O)[O-])o1)NCc1ccc(C(=O)NCCc2ccccc2)cc1", "> 100 µM"]
]}

# ---- query compound ----
Incoming: GET /values?readout=TGI&system=IGROV1 ovarian&item= COc1cc(C2C3=C(CCC3=O)Oc3cc4c(cc32)OCO4)cc(OC)c1OC (stereo unspecified)
Outgoing: > 100 µM

* * *

Tested on: OVCAR-8 ovarian
METHOD: NCI tumour cell line growth inhibition, 48 h
MEASUREMENT LABEL: TGI

{"columns": ["COMPOUND", "TGI"],
 "data": [
  ["C/C1=C\\[C@H](C)C[C@H](C)OC(=O)C[C@H](c2ccc(O)cc2)NC(=O)[C@@H](Cc2c(Br)[nH]c3ccccc23)N(C)C(=O)[C@H](C)NC(=O)[C@@H](C)C1", "0.568 µM"]
]}

Incoming: Please tell me: TGI of CC1=C(C(=O)OCCc2ccc([N+](=O)[O-])cc2)C(c2ccccc2[N+](=O)[O-])C(C(=O)OC(C)C)=C(C)N1 (centres undefined) , system OVCAR-8 ovarian?
Outgoing: > 100 µM

Incoming: # iterate: CCOC1OCCCC1Br (centres undefined)
Outgoing: > 100 µM

* * *

Tested on: T-47D breast
METHOD: NCI tumour cell line growth inhibition, 48 h
MEASUREMENT LABEL: TGI (µM)
Write the answer as a number in µM, unit excluded.

Below: 6 compounds and their reported TGI.
{"columns": ["COMPOUND", "READOUT UNITS", "TGI"],
 "data": [
  ["CCCCCCCCCCCCn1c(C)nc2ccccc21", "µM", 19.1],
  ["Nc1ncnc2c1c(C(F)(F)F)cn2[C@@H]1O[C@H](CO)[C@@H](O)[C@H]1O", "µM", 70.8],
  ["CCN(CC)CCN1C(=O)c2c(c(C)c3c(oc4cc(O)ccc43)c2C)C1=O", "µM", 6.44],
  ["Cc1ccc(Cl)cc1Nc1nc(C(F)(F)F)ccc1C(=O)Nc1cccc(C(F)(F)F)c1", "µM", 8.95],
  ["O=C(CC(O)(C(F)(F)F)C(F)(F)F)C(CCCl)C(O)(C(F)(F)F)C(F)(F)F (configuration not stated)", "µM", 78],
  ["COc1cc(C)c(C(=O)O[C@H]2[C@H](O[C@H]3[C@@H](O)COC(O[C@H]4C[C@H]5[C@@H]6CC=C7C[C@@H](O)CC[C@]7(C)[C@H]6CC[C@]5(C)[C@H]4[C@H](C)C(=O)CCC(C)C)[C@@H]3OC(C)=O)OC[C@@H](O)[C@@H]2O)c(C)c1 (some centres not stated)", "µM", 16.7]
]}

We now examine a further compound.
Incoming: Identify the measured TGI of Cl.[Pt].[c-]1ccccc1-c1ccccn1.c1ccc(P(c2ccccc2)C([PH+](c2ccccc2)c2ccccc2)[PH+](c2ccccc2)c2ccccc2)cc1 for T-47D breast.
Outgoing: 19.5

* * *

Test system: SF-295 CNS
METHOD: NCI tumour cell line growth inhibition, 48 h
Catalogue of TGI readings, one per entry.

{"columns": ["COMPOUND", "TGI"],
 "data": [
  ["Oc1ccc2oc3ncc(Cl)c(-c4ccccc4)c3c2c1", "> 100 µM"],
  ["O=C(c1ccccc1Nc1ccnc(C(F)(F)F)c1)N1CCN(c2cccc(Cl)c2)CC1", "65.6 µM"],
  ["COc1ccccc1/C=C\\c1cnnc2ccccc12", "> 10 µM"],
  ["O=C(/C=C/c1ccc(-c2ccccc2[N+](=O)[O-])o1)NCc1ccc(C(=O)NCCc2ccccc2)cc1", "> 100 µM"],
  ["Nc1ccc2c(c1)C(=O)c1ccccc1-2", "> 100 µM"]
]}

Incoming: Request the reported TGI associated with CCN1CCN(c2nc(NNC(=O)Cc3ccccc3)nc(N3CCN(C(c4ccccc4)c4ccccc4)CC3)n2)CC1
Outgoing: 3.99 µM

Incoming: Follow-up entry: Cc1cc(NS(=O)(=O)c2ccc(Nc3c4ccccc4nc4c(C(=O)Nc5ccc(S(=O)(=O)N=C(N)N)cc5)cccc34)cc2)no1
Outgoing: > 100 µM

Incoming: Repeat for the following compound: Cn1c2ccccc2c(=Nc2ccccc2)c2c3ccccc3[nH]c21
Outgoing: 2.22 µM

Incoming: Would you kindly repeat that for COc1ccc(N2CCN(C(=O)c3ccccc3Nc3ccnc(C(F)(F)F)c3)CC2)cc1 ?
Outgoing: > 100 µM

Incoming: Check N#CCCC1C(C#N)C2CC1C1C3C=CC(C3)C21 (stereo not given) too.
Outgoing: > 100 µM

* * *

Catalogue of TGI values
System: SNB-19 CNS
METHOD: NCI tumour cell line growth inhibition, 48 h

Previously resolved entries follow.
{"columns": ["MOLECULE", "MEASUREMENT LABEL", "MEASURED"],
 "data": [
  ["Nc1ncnc2c1c(C(F)(F)F)cn2[C@@H]1O[C@H](CO)[C@@H](O)[C@H]1O", "TGI", "> 100 µM"],
  ["Cc1cc(S(=O)(=O)Nc2nnc3c(C(F)(F)F)cc(Cl)cn23)c(S)cc1Cl", "TGI", "> 100 µM"],
  ["O=C1c2ccccc2C(=O)c2c(NCCCNCCO)ccc(NCCCNCCO)c21", "TGI", "20.9 µM"],
  ["CC1=NNC(=NCCN(C)C)C/C1=C/c1ccccc1Cl", "TGI", "> 100 µM"],
  ["O=c1[nH]c(=O)n(C2OC(COP(=O)(O)OP(=O)(O)O)C(O)C2O)cc1F (stereo unspecified)", "TGI", "> 50 µM"]
]}

Let us move to another entry and its TGI.
Incoming: For CC(C)(C)N=C1CC(C)(C)c2ccccc2C(=Nc2ccccc2)S1 , what is its reported TGI?
Outgoing: > 100 µM
